Quick list: Dmax per entry.
# target: IKZF1 (Homo sapiens (Human), UniProt Q13422+Q96SW2)
# Sequence (Q13422 whole entry): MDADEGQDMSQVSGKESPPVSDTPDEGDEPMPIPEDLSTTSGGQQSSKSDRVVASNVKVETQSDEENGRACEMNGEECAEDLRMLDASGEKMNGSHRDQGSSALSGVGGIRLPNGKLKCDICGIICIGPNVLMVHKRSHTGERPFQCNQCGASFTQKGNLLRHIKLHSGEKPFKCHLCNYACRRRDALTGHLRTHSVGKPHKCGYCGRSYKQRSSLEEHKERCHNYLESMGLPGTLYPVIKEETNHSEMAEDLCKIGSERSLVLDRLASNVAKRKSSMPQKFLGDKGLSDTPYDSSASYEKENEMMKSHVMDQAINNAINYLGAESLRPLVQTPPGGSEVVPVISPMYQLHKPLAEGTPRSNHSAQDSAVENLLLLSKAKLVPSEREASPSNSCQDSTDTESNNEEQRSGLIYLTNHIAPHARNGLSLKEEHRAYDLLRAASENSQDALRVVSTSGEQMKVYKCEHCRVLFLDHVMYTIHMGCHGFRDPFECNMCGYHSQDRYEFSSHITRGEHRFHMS
# Sequence (Q96SW2 whole entry): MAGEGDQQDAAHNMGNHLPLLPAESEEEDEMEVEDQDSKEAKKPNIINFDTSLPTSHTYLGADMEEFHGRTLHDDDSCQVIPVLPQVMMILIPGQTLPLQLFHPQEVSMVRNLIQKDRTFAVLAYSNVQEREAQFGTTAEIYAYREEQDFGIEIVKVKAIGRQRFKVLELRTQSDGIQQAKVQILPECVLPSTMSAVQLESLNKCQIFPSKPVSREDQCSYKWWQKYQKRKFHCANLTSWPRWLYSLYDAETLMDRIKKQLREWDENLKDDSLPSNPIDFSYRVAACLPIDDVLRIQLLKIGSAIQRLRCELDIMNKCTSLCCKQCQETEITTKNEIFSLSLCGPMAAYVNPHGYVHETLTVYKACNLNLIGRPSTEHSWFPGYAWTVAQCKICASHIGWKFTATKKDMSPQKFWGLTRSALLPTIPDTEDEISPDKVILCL
# Sequence (Q16531 2-1140 partner): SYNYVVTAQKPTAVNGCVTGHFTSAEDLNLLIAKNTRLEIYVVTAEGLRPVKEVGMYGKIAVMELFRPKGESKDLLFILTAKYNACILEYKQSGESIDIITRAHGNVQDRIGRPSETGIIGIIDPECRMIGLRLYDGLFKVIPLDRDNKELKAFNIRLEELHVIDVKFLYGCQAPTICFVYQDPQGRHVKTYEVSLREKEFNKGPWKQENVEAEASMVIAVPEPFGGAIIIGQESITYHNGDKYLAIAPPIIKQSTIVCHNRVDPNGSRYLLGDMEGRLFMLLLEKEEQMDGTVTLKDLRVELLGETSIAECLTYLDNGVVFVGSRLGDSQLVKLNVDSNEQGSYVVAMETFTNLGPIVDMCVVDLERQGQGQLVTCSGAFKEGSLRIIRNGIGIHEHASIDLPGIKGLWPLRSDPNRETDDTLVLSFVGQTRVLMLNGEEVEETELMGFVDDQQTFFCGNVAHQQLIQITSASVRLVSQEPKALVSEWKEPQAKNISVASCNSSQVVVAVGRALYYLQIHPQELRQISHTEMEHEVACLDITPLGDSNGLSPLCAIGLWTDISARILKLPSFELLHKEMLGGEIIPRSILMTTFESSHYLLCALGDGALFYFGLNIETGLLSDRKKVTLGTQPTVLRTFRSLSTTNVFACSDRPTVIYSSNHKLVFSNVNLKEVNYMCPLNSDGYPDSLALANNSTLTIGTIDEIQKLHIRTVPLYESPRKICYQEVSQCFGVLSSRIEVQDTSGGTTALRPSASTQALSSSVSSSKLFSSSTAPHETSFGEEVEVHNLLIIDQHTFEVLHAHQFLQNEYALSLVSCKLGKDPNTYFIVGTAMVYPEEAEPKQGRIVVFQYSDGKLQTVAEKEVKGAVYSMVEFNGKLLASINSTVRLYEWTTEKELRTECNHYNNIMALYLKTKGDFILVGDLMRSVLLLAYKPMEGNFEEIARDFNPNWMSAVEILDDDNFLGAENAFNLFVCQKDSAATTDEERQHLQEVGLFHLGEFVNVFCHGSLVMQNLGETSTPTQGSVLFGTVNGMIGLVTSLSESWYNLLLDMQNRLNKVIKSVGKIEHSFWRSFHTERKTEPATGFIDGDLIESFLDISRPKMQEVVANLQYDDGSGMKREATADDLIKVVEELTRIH
# measurement description: In vitro IKZF1 HiBit Assay (HEK293T Flp-in-HiBiT-IKZF1 stable cell line)
# Type: cell-based
# measurement context: HEK-293T; HEK293T Flp-in-HiBiT-IKZF1 stable cell line, 6 hrs incubation; read-out: IKZF1 HiBit Dmax (%)

Entry O=C1CCC(N2Cc3cc(-c4ccc(CN5CCCC5)c5cncn45)ccc3C2=O)C(=O)N1 (centres unmarked) : reported Dmax = ?
< 20%

And CC(C)Nc1n[nH]c2c(CN3CCCC3)cc(-c3ccc4c(c3)C(C)N(C3CCC(=O)NC3=O)C4=O)nc12 (centres unmarked) ?
< 20%

And O=C1CCC(N2Cc3cc(-c4cc(CN5CCCC5)c5c(C(F)(F)F)nn(C6COC6)c5n4)ccc3C2=O)C(=O)N1 (centres unmarked) ?
< 20%

----------
# target: IKZF1 (Homo sapiens (Human), UniProt Q13422+Q96SW2)
# measurement description: In vitro IKZF1 HiBit Assay (HEK293T Flp-in-HiBiT-IKZF1 stable cell line)
# Format: cell-based
# measurement context: HEK-293T; HEK293T Flp-in-HiBiT-IKZF1 stable cell line, 6 hrs incubation; read-out: IKZF1 HiBit Dmax (%)
recorded metric: Dmax

// lookup Dmax | system=IKZF1 (Homo sapiens (Human), UniProt Q13422+Q96SW2) | key= CC(C)Nc1n[nH]c2c(CN3CC4(COC4)C3)cc(-c3ccc4c(c3F)CN(C3CCC(=O)NC3=O)C4=O)nc12 (stereo not drawn) [Example 287]
20 to 40%

And O=C1CCC(N2Cc3cc(-c4cc(CN5CCCC5)c5nc[nH]c5n4)ccc3C2=O)C(=O)N1 (stereo not drawn) [Example 145] ?
< 20%

And Cn1ccc2c(CN3CCC(F)CC3)cc(-c3ccc4c(c3)CN(C3CCC(=O)NC3=O)C4=O)nc21 (stereo not drawn) [Example 301] ?
20 to 40%

And O=C1CCC(N2Cc3cc(-c4cc(CN5CC(CO)C5)c5ccn(C6COC6)c5n4)ccc3C2=O)C(=O)N1 (stereo not drawn) [Example 165] ?
< 20%

And O=C1CCC(N2Cc3cc(-c4cc(CN5CCCC5)c5ccn(CCOCc6ccccc6)c5n4)ccc3C2=O)C(=O)N1 (stereo not drawn) [Example 130] ?
< 20%

And CCNc1n[nH]c2c(CN3CCCC3)cc(-c3ccc4c(c3)CN(C3CCC(=O)NC3=O)C4=O)nc12 (stereo not drawn) [Example 199] ?
20 to 40%

And O=C1CCC(N2Cc3cc(-c4cc(CN5CC(F)C5)c5cc[nH]c5n4)ccc3C2=O)C(=O)N1 (stereo not drawn) [Example 117] ?
< 20%

And CN(C)CC1CCN(Cc2cc(-c3ccc4c(c3)CN(C3CCC(=O)NC3=O)C4=O)nc3[nH]ccc23)C1 (stereo not drawn) [Example 123] ?
20 to 40%

And O=C1CCC(N2Cc3cc(-c4cc(CN5CCCC5)c5nccc(OC6CCC6)c5n4)ccc3C2=O)C(=O)N1 (stereo not drawn) [Example 239] ?
< 20%

And Cn1ccc2c(CN3CCC(O)C3)cc(-c3ccc4c(c3)CN(C3CCC(=O)NC3=O)C4=O)nc21 (stereo not drawn) [Example 303] ?
20 to 40%

And Cn1ccc2c(CN3CC4CC4C3)cc(-c3ccc4c(c3)CN(C3CCC(=O)NC3=O)C4=O)nc21 (stereo not drawn) [Example 66] ?
20 to 40%

And O=C1CCC(N2Cc3cc(-c4cc(CN5CCC5)c5[nH]ccc5n4)ccc3C2=O)C(=O)N1 (stereo not drawn) [Example 156] ?
20 to 40%

And Cn1ncc2nc(-c3ccc4c(c3)CN(C3CCC(=O)NC3=O)C4=O)cc(CN3CCCC3)c21 (stereo not drawn) [Example 310] ?
< 20%

And Nc1n[nH]c2c(CN3CCC(O)CC3)cc(-c3ccc4c(c3)CN(C3CCC(=O)NC3=O)C4=O)nc12 (stereo not drawn) [Example 205] ?
20 to 40%

And O=C1CCC(N2Cc3c(ccc(-c4nc5c(ccn5C5COC5)c(CN5CCCC5)c4Cl)c3F)C2=O)C(=O)N1 (stereo not drawn) [Example 270] ?
< 20%
